Assignment: determine reported protein stability index for the given variants.
B1: TOR1AIP2 (parent)
chain: YTSSQKVSPIQIDGAGRTWQDSDT

variants of: B1; experiment: protein stability index of a GFP-peptide fusion (GPS, HEK-293T) (PSI 1-6); higher = more stable; conditions: c terminus: a fixed tail appended;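 further: lentivirally expressed fusions sorted by FACS into six bins by GFP to DsRed ratio, PSI derived from sequencing read proportions per bin multiplied by bin number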
Give the value as a plain number.

Ask: Answer with the recorded protein stability index for the variant listed here: YTSSQKVSPIQIGGAGRTWQDSDT [D13G]
Result: 3.07

Ask: For the variant ITSSQKVSPIQIDGAGRTWQDSDT [Y1I] , report protein stability index.
Result: 4.3

Ask: Respond only with protein stability index recorded for YTSSQKVSPIQIDGAGRTWQDMDT [S22M]
Result: 2.18

Ask: Given YTSSQKVSPGQIDGAGRTWQDSDT [I10G] , respond with its protein stability index.
Result: 3.85

Ask: Supply recorded protein stability index for YTSSQKVSPIQIDGAGRTWYDSDT [Q20Y] here.
Result: 2.84

Ask: Provide measured protein stability index value, entry: YTSSQKVSPLQIDGAGRTWQDSDT [I10L]
Result: 3.52

Ask: Return reported protein stability index. Input variant: YTSSQKVSPIQIDGAGRTCQDSDT [W19C]
Result: 3.88

Ask: Let me know recorded protein stability index for YTSSQKVSPIQIDGAGRQWQDSDT [T18Q] , thanks.
Result: 3.8

Ask: For the variant YTSSQKVSPIQIDGAGNTWQDSDT [R17N] , report protein stability index.
Result: 3.02

Ask: Please give measured protein stability index of the following entry: YTSSQKVSPIQIDGDGRTWQDSDT [A15D]
Result: 3.85

Ask: Entry YTSSQKVSPIQIDEAGRTWQDSDT [G14E] needs its protein stability index filled in; supply it.
Result: 3.94

Ask: Give a short answer stating reported protein stability index for YTSQQKVSPIQIDGAGRTWQDSDT [S4Q] .
Result: 3.25

Ask: Look up and report measured protein stability index for this entry: YTSSQKVSPIVIDGAGRTWQDSDT [Q11V]
Result: 2.84

Ask: Read the entry YTSSQKVSPIQIDLAGRTWQDSDT [G14L] and write its reported protein stability index.
Result: 2.99

Ask: For the variant YTSSQKVDPIQIDGAGRTWQDSDT [S8D] , report protein stability index.
Result: 2.9

Ask: Please list protein stability index recorded for the variant YTSSQKVSPIQIDGAGRTWQDSDM [T24M]
Result: 2.58

Ask: Write down protein stability index measured for item YTSSQKVSPIQIDGQGRTWQDSDT [A15Q]
Result: 3.35

Ask: Specify measured protein stability index for YTSSQKVSPIQIDGAGRTWQDSDC [T24C] .
Result: 3.52

Ask: Entry YTSSQKVSPIQIDGAGRMWQDSDT [T18M] needs its protein stability index filled in; supply it.
Result: 2.42

Ask: Return protein stability index for the following variant: YTSSQKVSPCQIDGAGRTWQDSDT [I10C]
Result: 3.25

Ask: For the variant YTSSQKVSPIQIDGNGRTWQDSDT [A15N] , report protein stability index.
Result: 3.71

Ask: Given YTSSQKVSPIQIDGAGRTWQDTDT [S22T] , respond with its protein stability index.
Result: 3.63
